tested on: MCF-7 cells; assay: MTT antiproliferative activity assay, MCF-7; format: cell-based, human; settings: MTT, 48 h treatment, average of three replicates
We begin with a simple list: items and their reported IC50 MCF-7.

Compound: COc1cc(O)c2c(c1)O[C@H](c1ccc(O)c(O)c1)[C@@H](OC(C)=O)C2=O
IC50 MCF-7: >150 µg/mL
//
Compound: C=C(C(=O)O)[C@@H]1CC[C@@]2(C)CC[C@@H](O)C(=C)C2C1 (stereo partly drawn)
IC50 MCF-7: >150 µg/mL

IC50 MCF-7 of COc1c(O)cc2oc(-c3ccc(O)c(O)c3)cc(=O)c2c1O on MCF-7 cells? 5.87 ± 1.36 µg/mL
